System: SH-SY5Y cells
Assay: MTT cytotoxicity, SH-SY5Y
Assay type: cell-based, human
Settings: Homo sapiens, SH-SY5Y; MTT, 72 h exposure; read-out: SH-SY5Y IC50
Parameter IC50: see the listing below.
Write the number in µM without appending the unit.

                                   molecule  target_under_test  metric_name  value_measured
0  COc1cc(/C=N/NC(=O)c2ccc(O)cc2O)ccc1O [3r]      SH-SY5Y cells         IC50             156

Inquiry: Report measured IC50; entry is COc1ccc(/C=N/NS(=O)(=O)c2ccc(C)cc2)cc1OC [5h]
Reply text: 42

Inquiry: Report measured IC50; entry is O=C(N/N=C/C1CCN(Cc2ccccc2)CC1)c1c[nH]c2ccccc12 [3c]
Reply text: 97.3

Inquiry: Report measured IC50; entry is Cc1ccc(S(=O)(=O)N/N=C/c2c[nH]c3ccc(OCc4ccccc4)cc23)cc1 [5j]
Reply text: 33.1

====

Please consider the recorded IC50 for Acetylcholinesterase from Electrophorus electricus (Electrophorus electricus) in what follows.

Record excerpt, results attached:
>>> df
                                   compound  value_measured
0       O=S(=O)(N/N=C/c1ccc(Cl)cc1)c1ccccc1          > 1 mM
1  COc1ccc2[nH]cc(/C=N/NC(=O)CNC(=O)OC(C)(C)C)c2c1          > 1 mM
2  COc1cc(/C=N/NC(=O)Cc2c[nH]c3ccccc23)ccc1O          > 1 mM
3  COc1ccc(/C=N/NC(=O)Cc2c[nH]c3ccccc23)cc1OC          > 1 mM
4  COc1ccc2[nH]cc(/C=N/NC(=O)Cc3c[nH]c4ccccc34)c2c1          > 1 mM
5  CC(C)(C)OC(=O)NCC(=O)N/N=C/c1cn(Cc2ccccc2)c2ccccc12          > 1 mM
6  O=C(Cc1c[nH]c2ccccc12)N/N=C/C1CCN(Cc2ccccc2)CC1       0.0765 mM
7  COc1ccc(S(=O)(=O)N/N=C/c2cn(C)c3ccccc23)cc1          > 1 mM
8  Cn1cc(/C=N/NC(=O)CNC(=O)OC(C)(C)C)c2ccccc21          > 1 mM
9  O=C(N/N=C/C1CCN(Cc2ccccc2)CC1)c1ccc(O)cc1O       0.0198 mM

Inquiry: For Acetylcholinesterase from Electrophorus electricus (Electrophorus electricus), give IC50 of the listed compound: O=S(=O)(N/N=C/C1CCN(Cc2ccccc2)CC1)c1ccccc1
Reply text: 0.163 mM

Inquiry: For Acetylcholinesterase from Electrophorus electricus (Electrophorus electricus), give IC50 of the listed compound: COc1ccc(/C=N/NS(=O)(=O)c2ccc(C)cc2)cc1OC
Reply text: > 1 mM

Inquiry: For Acetylcholinesterase from Electrophorus electricus (Electrophorus electricus), give IC50 of the listed compound: COc1ccc(C(=O)N/N=C/C2CCN(Cc3ccccc3)CC2)cc1
Reply text: 0.00977 mM

Inquiry: For Acetylcholinesterase from Electrophorus electricus (Electrophorus electricus), give IC50 of the listed compound: Cc1ccc(S(=O)(=O)N/N=C/c2cn(Cc3ccccc3)c3ccccc23)cc1
Reply text: > 1 mM

Inquiry: For Acetylcholinesterase from Electrophorus electricus (Electrophorus electricus), give IC50 of the listed compound: COc1ccc2[nH]cc(CCNC(C)=O)c2c1 [Melatonin, reference compound]
Reply text: > 1 mM

Inquiry: For Acetylcholinesterase from Electrophorus electricus (Electrophorus electricus), give IC50 of the listed compound: COc1ccc(/C=N/NC(=O)c2c[nH]c3ccccc23)cc1OC
Reply text: > 1 mM

Inquiry: For Acetylcholinesterase from Electrophorus electricus (Electrophorus electricus), give IC50 of the listed compound: O=C(N/N=C/C1CCN(Cc2ccccc2)CC1)c1c[nH]c2ccccc12
Reply text: 0.0108 mM

Inquiry: For Acetylcholinesterase from Electrophorus electricus (Electrophorus electricus), give IC50 of the listed compound: COc1ccc(S(=O)(=O)N/N=C/c2c[nH]c3ccc(OC)cc23)cc1
Reply text: > 1 mM

Inquiry: For Acetylcholinesterase from Electrophorus electricus (Electrophorus electricus), give IC50 of the listed compound: COc1ccc2c(c1)c(/C=N/NC(=O)CNC(=O)OC(C)(C)C)cn2C
Reply text: > 1 mM

Inquiry: For Acetylcholinesterase from Electrophorus electricus (Electrophorus electricus), give IC50 of the listed compound: O=S(=O)(N/N=C/c1cn(Cc2ccccc2)c2ccccc12)c1ccccc1
Reply text: > 1 mM

Inquiry: For Acetylcholinesterase from Electrophorus electricus (Electrophorus electricus), give IC50 of the listed compound: O=C(N/N=C/c1c(O)cc(O)cc1O)C1CCN(Cc2ccccc2)C1 (centres unmarked)
Reply text: 0.351 mM

Inquiry: For Acetylcholinesterase from Electrophorus electricus (Electrophorus electricus), give IC50 of the listed compound: O=S(=O)(N/N=C/c1c[nH]c2ccc(OCc3ccccc3)cc12)c1ccccc1
Reply text: > 1 mM

Inquiry: For Acetylcholinesterase from Electrophorus electricus (Electrophorus electricus), give IC50 of the listed compound: O=C(N/N=C/c1ccc(O)cc1O)C1CCN(Cc2ccccc2)C1 (centres unmarked)
Reply text: 0.55 mM
